Target: T1, T cell receptor (TCR) Vγ9 (TRGV9) (human, UniProt Q99603 21-122); note: test concentration or dose not given here
T1 chain (looked up): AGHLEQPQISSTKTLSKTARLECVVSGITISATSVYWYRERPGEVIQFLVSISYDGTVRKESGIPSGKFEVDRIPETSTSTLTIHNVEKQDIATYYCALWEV
Test summary: cell-based or functional assay
Overview of reported CD71+ (Vg9+ cells), flow staining across a group of binders:
Hi! Could you send only the number? It should be in %, unit omitted.

Binder	CD71+ (Vg9+ cells), flow staining, %
VG9B384 (antibody, human IgG1, lambda, V domains shown) VH: QVQLQESGPALVKPTQTLTLTCTFSGFSLSSSGMCVSWIRQPPGKALEWLTLIDWFDDKYYSTSLKTRLTISKDTSKNQVVLTMTNMDPVDTATYYCARIRGTGAYYYGLDVWGQGTMVTVSS VL: SYELMQPPSVSVSPGQTASITCSGNELGDKYASWYQQQPGQSPVLVIYQDNKRPSGIPERFSGSNSGNTATLTISGTQAMDEADYYCQAWDSSKVVFGGGTKLTVLG	89.9

For reference, reported CD71+ (Vg9+ cells), flow staining for VG9B191 (antibody, human IgG1, lambda, V domains shown) VH: EVQLVQSGGGLVKPGGSLRLSCAASGFTFSRYSMNWVRQAPGKGLEGVSSISSSSSYIYYADSVKGRFTISRDNAKNSLYLQMNSLRAEDTAVYYCARDGPTVNWDYYFDLWGRGTLVTVSS VL: QSVLTQPPSVSAAPGQKVTISCSGSSSNIGNNYVSWYQQLPGTAPKLLIYDNNKRPSGIPDRFSGSKSGTSATLGITGLQTGDEADYYCGTWDSSLSTSVVFGGGTKLTVLG stands at 93.6
